- studySystem: cdk1/cyclin B (CDC2) (Homo sapiens, UniProt P06493)
- Sequence (P06493 whole entry, species assumed): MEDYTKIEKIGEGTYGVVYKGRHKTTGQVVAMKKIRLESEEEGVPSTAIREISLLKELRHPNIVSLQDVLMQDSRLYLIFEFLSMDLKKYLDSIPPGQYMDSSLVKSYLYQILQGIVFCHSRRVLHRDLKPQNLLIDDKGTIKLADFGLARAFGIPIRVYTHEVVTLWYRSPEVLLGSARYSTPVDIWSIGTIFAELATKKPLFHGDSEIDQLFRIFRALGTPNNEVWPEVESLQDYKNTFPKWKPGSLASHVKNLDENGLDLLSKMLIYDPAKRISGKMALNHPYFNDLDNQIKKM
- Sequence (P14635 whole entry partner, species assumed): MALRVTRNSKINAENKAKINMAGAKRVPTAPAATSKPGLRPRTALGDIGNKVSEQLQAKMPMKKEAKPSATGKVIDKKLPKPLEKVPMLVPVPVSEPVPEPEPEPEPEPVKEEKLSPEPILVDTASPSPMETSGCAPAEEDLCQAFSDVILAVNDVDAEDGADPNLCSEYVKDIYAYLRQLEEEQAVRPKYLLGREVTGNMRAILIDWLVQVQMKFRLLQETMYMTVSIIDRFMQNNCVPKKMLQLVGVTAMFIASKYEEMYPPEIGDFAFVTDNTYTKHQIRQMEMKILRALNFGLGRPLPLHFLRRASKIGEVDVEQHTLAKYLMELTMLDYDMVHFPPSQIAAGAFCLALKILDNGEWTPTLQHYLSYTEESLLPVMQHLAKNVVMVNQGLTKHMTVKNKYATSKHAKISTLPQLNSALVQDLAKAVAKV
- testSummary: CDK inhibition assay, cdk1/cyclin B (CDC2) kinase, histone phosphorylation
- Assay type: biochemical
- Experimental: Selected compounds were tested for cdk1/cyclin B and cdk2/cyclin E inhibitory activity to determine the basic relationships between their interaction energy of docked complex and the inhibitory activity. Cdk2/cyclin E complex was produced in SIP insect cells co-infected with appropriate baculoviral construct. […] The kinase activity was expressed as a percentage of maximum activity and the IC50 value was determined by graphic analysis. […]
pIC50: −log10 of the molar value.
Quick rule: pIC50 of at least 8 means true, below that means false.

q: Evaluate CC[C@H](CO)Nc1nc(NC(CO)c2ccccc2)c2[nH]nc(C(C)C)c2n1 (mixture of isomers) : pIC50 at minimum 8?
a: false

q: Evaluate "CC(C)c1n[nH]c2c(NCc3ccc(Cl)c(O)c3O)nc(N[C@@H](CO)C(C)C)nc12" : pIC50 at minimum 8?
a: true

q: Evaluate "CC(C)c1n[nH]c2c(Nc3cccc(Cl)c3)nc(N[C@@H](CO)C(C)C)nc12" : pIC50 at minimum 8?
a: true

q: Evaluate "Cc1n[nH]c2c(Nc3ccc(O)c(C(=O)O)c3)nc(NCCO)nc12" : pIC50 at minimum 8?
a: false

q: Evaluate "CC(C)c1n[nH]c2c(NCc3ccccc3)nc(N(CCO)CCO)nc12" : pIC50 at minimum 8?
a: false

* * *

- Tested on: CEM (human lymphoblastoid leukemia)
- testSummary: In vitro cytotoxic activity, Calcein AM
- Type: cell-based
- runParameters: Homo sapiens, 72 h, three days
Field: label. Allowed values: true (1) (GI50 < 9 µM) or false (0) (GI50 >= 9 µM).

q: Determine if "CC[C@H](CO)Nc1nc(Nc2cc(N)cc(Cl)c2)c2[nH]nc(C(C)C)c2n1" shows GI50 strictly lower than 9 µM.
a: false (0)

q: Determine if "Cc1n[nH]c2c(NCc3ccccc3)nc(N(CCO)CCO)nc12" shows GI50 strictly lower than 9 µM.
a: false (0)

q: Determine if "Cc1n[nH]c2c(NCc3ccc(O)c(O)c3)nc(NCCO)nc12" shows GI50 strictly lower than 9 µM.
a: false (0)

q: Determine if "CC[C@H](CO)Nc1nc(NCc2ccccc2)c2[nH]nc(C)c2n1" shows GI50 strictly lower than 9 µM.
a: true (1)

q: Determine if CC(C)c1n[nH]c2c(NC(CO)c3ccccc3)nc(NC(CO)C(C)C)nc12 (centres unmarked) shows GI50 strictly lower than 9 µM.
a: true (1)

* * *

- studySystem: cdk1/cyclin B (CDC2) (Homo sapiens)
- testSummary: CDK inhibition assay, cdk1/cyclin B (CDC2) kinase, histone phosphorylation
- Type: biochemical
- runParameters: cell free system (Table 8)
So I've got a bunch of molecules here, and I need their IC50 values.
Give just the number in µM; leave the unit off.

q: Lab note: need IC50 with cdk1/cyclin B (CDC2) (Homo sapiens) for entry CC(C)c1n[nH]c2c(NC(CO)c3ccccc3)nc(N3CCOCC3)nc12 (stereo not drawn) , please look it up.
a: 5.5

q: Lab note: need IC50 with cdk1/cyclin B (CDC2) (Homo sapiens) for entry "CC(C)c1n[nH]c2c(NCc3ccccc3)nc(NCCCO)nc12" , please look it up.
a: 1

q: Lab note: need IC50 with cdk1/cyclin B (CDC2) (Homo sapiens) for entry CCC(CO)Nc1nc(NCc2ccc(O)c(O)c2)c2[nH]nc(C(C)C)c2n1 (stereo not drawn) , please look it up.
a: 1.2

q: Lab note: need IC50 with cdk1/cyclin B (CDC2) (Homo sapiens) for entry CCCCCCNc1nc(NC(CO)c2ccccc2)c2[nH]nc(C(C)C)c2n1 (stereo not drawn) , please look it up.
a: 30

* * *

So I've got a bunch of compounds here, and I need their pIC50 values.
- studySystem: cdk1/cyclin B (CDC2) (Homo sapiens, UniProt P06493)
- testSummary: CDK inhibition assay, cdk1/cyclin B (CDC2) kinase, histone phosphorylation
- Type: biochemical
Scale explanation: pIC50 corresponds to minus log10 of a concentration expressed in moles per litre.

q: Lab note: need pIC50 with cdk1/cyclin B (CDC2) (Homo sapiens, UniProt P06493) for entry "CC(=O)Oc1ccccc1CNc1nc(NCCO)nc2c(C)n[nH]c12" , please look it up.
a: 6.30

q: Lab note: need pIC50 with cdk1/cyclin B (CDC2) (Homo sapiens, UniProt P06493) for entry "CC(C)c1n[nH]c2c(Nc3cccc(Cl)c3)nc(NCCN)nc12" , please look it up.
a: 6.85

q: Lab note: need pIC50 with cdk1/cyclin B (CDC2) (Homo sapiens, UniProt P06493) for entry CC(C)c1n[nH]c2c(NCc3ccccc3)nc(NC3CCC(N)CC3)nc12 (centres unmarked) , please look it up.
a: 8.30

q: Lab note: need pIC50 with cdk1/cyclin B (CDC2) (Homo sapiens, UniProt P06493) for entry "CC(=O)c1ccccc1CNc1nc(N[C@@H](CO)C(C)C)nc2c(C(C)C)n[nH]c12" , please look it up.
a: 7.70

q: Lab note: need pIC50 with cdk1/cyclin B (CDC2) (Homo sapiens, UniProt P06493) for entry "CC[C@H](CO)Nc1nc(NCc2cccc(C(C)=O)c2)c2[nH]nc(C(C)C)c2n1" , please look it up.
a: 8.00

q: Lab note: need pIC50 with cdk1/cyclin B (CDC2) (Homo sapiens, UniProt P06493) for entry "Cc1n[nH]c2c(NCc3ccccc3)nc(N(CCO)CCO)nc12" , please look it up.
a: 6.05

q: Lab note: need pIC50 with cdk1/cyclin B (CDC2) (Homo sapiens, UniProt P06493) for entry "CC[C@H](CO)Nc1nc(NCc2ccccc2O)c2[nH]nc(C(C)C)c2n1" , please look it up.
a: 8.10

q: Lab note: need pIC50 with cdk1/cyclin B (CDC2) (Homo sapiens, UniProt P06493) for entry "COc1cccc(CNc2nc(NCCO)nc3c(C)n[nH]c23)c1O" , please look it up.
a: 8.00

q: Lab note: need pIC50 with cdk1/cyclin B (CDC2) (Homo sapiens, UniProt P06493) for entry "Cc1n[nH]c2c(Nc3ccc(Cl)c(N)c3)nc(NCCO)nc12" , please look it up.
a: 8.05

q: Lab note: need pIC50 with cdk1/cyclin B (CDC2) (Homo sapiens, UniProt P06493) for entry "Cc1n[nH]c2c(Nc3ccc(Cl)c(C(=O)O)c3)nc(NCCO)nc12" , please look it up.
a: 8.30

q: Lab note: need pIC50 with cdk1/cyclin B (CDC2) (Homo sapiens, UniProt P06493) for entry "CC[C@H](CO)Nc1nc(NCc2cc(O)c(OC)cc2O)c2[nH]nc(C(C)C)c2n1" , please look it up.
a: 8.70

q: Lab note: need pIC50 with cdk1/cyclin B (CDC2) (Homo sapiens, UniProt P06493) for entry "COc1cccc(CNc2nc(N[C@@H](CO)C(C)C)nc3c(C(C)C)n[nH]c23)c1O" , please look it up.
a: 8.22

q: Lab note: need pIC50 with cdk1/cyclin B (CDC2) (Homo sapiens, UniProt P06493) for entry "CC[C@H](CO)Nc1nc(Nc2ccc(Br)cc2)c2[nH]nc(C(C)C)c2n1" , please look it up.
a: 8.70

q: Lab note: need pIC50 with cdk1/cyclin B (CDC2) (Homo sapiens, UniProt P06493) for entry "Cc1n[nH]c2c(NCc3ccccc3)nc(NCCCN)nc12" , please look it up.
a: 6.70

q: Lab note: need pIC50 with cdk1/cyclin B (CDC2) (Homo sapiens, UniProt P06493) for entry "CC[C@H](CO)Nc1nc(NCc2ccccc2C(C)=O)c2[nH]nc(C(C)C)c2n1" , please look it up.
a: 8.30

q: Lab note: need pIC50 with cdk1/cyclin B (CDC2) (Homo sapiens, UniProt P06493) for entry "CC[C@H](CO)Nc1nc(Nc2ccc(N)c(Cl)c2)c2[nH]nc(C(C)C)c2n1" , please look it up.
a: 8.70

q: Lab note: need pIC50 with cdk1/cyclin B (CDC2) (Homo sapiens, UniProt P06493) for entry "COc1cc(O)c(CNc2nc(NCCO)nc3c(C)n[nH]c23)cc1O" , please look it up.
a: 8.15

q: Lab note: need pIC50 with cdk1/cyclin B (CDC2) (Homo sapiens, UniProt P06493) for entry "CC[C@H](CO)Nc1nc(Nc2cc(N)cc(Cl)c2)c2[nH]nc(C(C)C)c2n1" , please look it up.
a: 8.40

q: Lab note: need pIC50 with cdk1/cyclin B (CDC2) (Homo sapiens, UniProt P06493) for entry "CC[C@H](CO)Nc1nc(Nc2ccccc2)c2[nH]nc(C(C)C)c2n1" , please look it up.
a: 7.70

q: Lab note: need pIC50 with cdk1/cyclin B (CDC2) (Homo sapiens, UniProt P06493) for entry "CC(C)c1n[nH]c2c(NCc3ccccc3)nc(NCCCN)nc12" , please look it up.
a: 7.10
